- ASSAY_METHOD_TEXT: Acute toxicity test in mice, intraperitoneal
- CONDITION_PARAMETERS: mouse, in vivo, ip, male ddY mice, deaths within 72 hours
REPORTED_METRIC: LD50 at 72 h (mg/kg)
Numbers only; they are read as mg/kg.

[
  {
    "CHEMICAL_SMILES": "CCOP(=O)(Cc1ccc(-c2nc3ccccc3s2)nc1)OCC",
    "REPORTED_METRIC": "LD50 at 72 h",
    "UNITS_SYMBOL": "mg/kg",
    "OBSERVED": 1060
  }
]

Task: Which LD50 at 72 h is listed for CC(C)OP(=O)(Cc1ccc(-c2nc3ccccc3s2)cc1)OC(C)C ?
Result: 1660

Task: Which LD50 at 72 h is listed for CCCOP(=O)(Cc1ccc(-c2nc3ccccc3s2)nc1)OCCC ?
Result: 713

Task: Which LD50 at 72 h is listed for COP(=O)(Cc1ccc(-c2nc3ccccc3s2)cc1)OC ?
Result: 1070

Task: Which LD50 at 72 h is listed for CCOP(=O)(Cc1ccc(-c2nc3ccccc3s2)cc1)OCC ?
Result: 962

meta.source: patent US4232010A
